- method_summary: JC-1 mitochondrial signal, unstimulated HepG2 cells – cell-based, JC-1 fluorescence, 24 h, 100 nL compound, profiling panel (AID 1167); note: test concentration not given here
- test_settings: HepG2 mitochondrial potential, higher = more signal
parameter: z-score
When you answer, write just the number.

Example cases with answers are listed next.
compound | test_result
CN(C)CCCN1C(=O)[C@@]2(Cc3ccccc31)c1ccccc1C(=O)N(Cc1ccccc1)[C@H]2c1ccc(CO)cc1 | 0.343
O=C1NC(=O)C2C1C=CC(C(O)c1ccc3c(c1)OCO3)N2Nc1ccc(Cl)cc1Cl (centres undefined) | -2.87
N#Cc1ccc(NN2C(C(O)c3ccco3)C=CC3C(=O)N(c4ccccc4)C(=O)C32)cc1 (centres undefined) | -0.764
CC(C)C[C@@H]1NC(=O)[C@@H]2C[C@H](C(=O)NCc3ccc(F)cc3)[C@H](c3ccc(O)cc3)N2C1=O | 1.07

Sample CCOC(=O)C[C@H]1[C@H](OC(=O)Cc2ccc3c(c2)OCO3)[C@@H](NC(=O)c2ccccc2)c2cc(OCCCO)ccc2N1C(=O)c1ccc2ccccc2n1 ; z-score observed: 1.12

Sample COCCCNC(=O)[C@@]1(Cc2ccccc2CN=[N+]=[N-])N=C(c2ccc(OCCCO)cc2)O[C@H]1c1ccccc1N=[N+]=[N-] ; z-score observed: 1.36

---

- Tested on: Sam68 (KHDRBS1)
- method_summary: compounds binding KHDRBS1 protein – biochemical, small-molecule microarray, 635 nm fluorescence, primary screen (AID 1125);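 note: score merges 667 nm channel intensity with signal to noise over triplicate slides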
- test_settings: higher = more signal
Mark Condition met for reported composite z-score of 0.9 or greater; mark Condition not met for anything smaller.

These recorded examples may help you get a feel for the data.
molecule | assay_system | class_name
CCCN1C(=O)[C@@]2(Cc3ccccc3)N=C(c3ccc(OCCCO)cc3)O[C@H]2c2ccccc21 | Sam68 (KHDRBS1) | Condition met
COC(=O)[C@@]1(Cc2ccc(OC)cc2)[C@H]2c3cc(C(=O)N(C)C)n(CCF)c3C[C@H]2CN1C(=O)c1ccccc1 | Sam68 (KHDRBS1) | Condition met
CN(C)C(=O)[C@@]1(CCC(=O)OC(C)(C)C)COC(c2ccc(OCCCO)cc2)=N1 | Sam68 (KHDRBS1) | Condition not met
CC(C)C[C@@H]1NC(=O)[C@@H]2C[C@H](C(=O)NCCCC[N+](C)(C)C)[C@H](c3cccc(OCCO)c3)N2C1=O | Sam68 (KHDRBS1) | Condition not met
CN(C)CCCCCCNC(=O)[C@@H]1C[C@@H]2C(=O)NCC(=O)N2[C@@H]1c1ccc(O)cc1 | Sam68 (KHDRBS1) | Condition met

Check the entry CCCCCCCCCCC(O)C1C=CC2C(=O)NC(=O)C2N1Nc1ccccn1 (stereo not drawn) : does composite z-score equal or exceed 0.9? Condition not met

Check the entry O=C(CS)NCCCCCNC(=O)[C@@H]1C[C@@H]2C(=O)N3CCC[C@H]3C(=O)N2[C@@H]1c1ccc(O)cc1 : does composite z-score equal or exceed 0.9? Condition met

Check the entry CC(C)C[C@@H]1NC(=O)[C@@]23C(=O)N[C@@H](Cc4ccccc4)C2[C@H](C)[C@@]2(C)O[C@H]2C3/C=C/C/C=C\CNC(=O)[C@@H]2CCCN2C1=O (stereo partly drawn) : does composite z-score equal or exceed 0.9? Condition not met

---

- method_summary: compound effects on lung adenocarcinoma cell viability – A549, calcein-AM fluorescence, 48 h, basal, profiling panel (AID 1162); note: test concentration not given here
- test_settings: higher = more signal
Quick reference: z-score of the listed items.

compound | z-score
CC(C)(C)OC(=O)CC[C@@]1(C(=O)N2CCCCC2)N=C(c2ccc(OCCCO)cc2)O[C@@H]1c1ccccc1CN=[N+]=[N-] | 0.708
O=C1OCC=C[C@H]2OC34C=CCN(CCN5CCOCC5)C(=O)[C@H]3N(CCCCCO)C(=O)[C@@H]4[C@@H]12 (some centres not stated) | 0.348
O=C1C[C@@](C(=O)NCc2ccccc2)(c2ccc([N+](=O)[O-])cc2)[C@@H](c2ccc(CO)cc2I)N1C1CCCCC1 | 1.14
O=[N+]([O-])c1ccc(C[n+]2ccc(-c3ccc(CO)cc3)cc2)o1 | 0.0994

Sample CCOC(=O)C[C@H]1[C@H](OC(=O)Cc2ccc3c(c2)OCO3)[C@@H](NC(=O)c2ccccc2)c2cc(OCCCO)ccc2N1C(=O)c1ccccc1 ; z-score observed: -0.11

Sample COc1cc(C(O)C2C=CC3C(=O)N(C)C(=O)C3N2NC(=O)OC(C)(C)C)cc(OC)c1OC (configuration not stated) ; z-score observed: -1.58

Sample COCCOC(=O)N1C(=O)[C@@]2(c3cc(C#Cc4ccc(OC)cc4)ccc31)[C@H](C(N)=O)[C@H]1C(=O)O[C@H](c3ccccc3)[C@H](c3ccccc3)N1[C@@H]2c1ccc(OCCO)cc1 ; z-score observed: -1.42

These entries and their values trace back to PubChem BioAssay.
